Biological target: Fc-fusion protein receptor ectodomain of BMPR-IA
Test: SPR (Biacore T100), receptor ectodomain-Fc on protein G chip, kinetic 1:1 fit; measurement 2
pKd: −log10 of the molar value.
Measure: pKd

(I) human GDF-5 mutant W417R (ligand) APLATRQGKRPSKNLKARCSRKALHVNFKDMGWDDRIIAPLEYEAFHCEGLCEFPLRSHLEPTNHAVIQTLMNSMDPESTPPTCCVPTRLSPISILFIDSANNVVYKQYEDMVVESCGCR
(II) recombinant human GDF-5 mutant S439E (ligand) APLATRQGKRPSKNLKARCSRKALHVNFKDMGWDDWIIAPLEYEAFHCEGLCEFPLREHLEPTNHAVIQTLMNSMDPESTPPTCCVPTRLSPISILFIDSANNVVYKQYEDMVVESCGCR
# input Pick one: I or II . Which one has the lower reported pKd? Mark your answer with the label of the selected entry.
# output I
(I: 7.01, II: 7.60)

Data origin, for the record: patent US20140369978A1
